- System: 171881-019-R-J1-PDC complex spheroid viability
- test: Anticancer human tumor 171881-019-R-J1-PDC patient-derived invasive breast carcinoma cell line growth inhibition; active means viability on the fitted dose curve at most 10% of control; inactive means the rest
- assayContext: second compound 1 µM; first compound 3 µM
- Excerpt: Multicellular complex tumor spheroid response to LSD1 Inhibitor Iadademstat in combination with a variety of drugs and investigational agents in selected tumor cell lines The current study was undertaken to assess response to LSD1 inhibitors in combination with standard-of-care drugs and investigational agents in solid tumor complex spheroid models as well as in the K-562 leukemia. […] Compounds. […] If the clinical Cmax for an agent had not been determined, the highest concentration tested was 10 microM. […]
Outcome codes: active, inactive

INSERT INTO assay_data (compound, labelclass) VALUES
  ('CCN(c1cc(-c2ccc(CN3CCOCC3)cc2)cc(C(=O)NCc2c(C)cc(C)[nH]c2=O)c1C)C1CCOCC1 + NC1CC1c1ccc(-c2cccc(O)c2)cc1', 'inactive'),
  ('NS(=O)(=O)OCC1CC(n2ccc3c(NC4CCc5ccccc54)ncnc32)CC1O (stereo not given) + NC1CC1c1ccc(-c2cccc(O)c2)cc1', 'inactive'),
  ('O=C(C=Cc1cccc(S(=O)(=O)Nc2ccccc2)c1)NO + NC1CC1c1ccc(-c2cccc(O)c2)cc1', 'active'),
  ('O=C(C=Cc1cccc(S(=O)(=O)Nc2ccccc2)c1)NO + NC1CCC(NC2CC2c2ccccc2)CC1', 'active'),
  ('COc1cc(C2c3cc4c(cc3C(OC3OC5COC(C)OC5C(O)C3O)C3COC(=O)C23)OCO4)cc(OC)c1O (stereo not given) + NC1CC1c1ccc(-c2cccc(O)c2)cc1', 'inactive'),
  ('CCN(c1cc(-c2ccc(CN3CCOCC3)cc2)cc(C(=O)NCc2c(C)cc(C)[nH]c2=O)c1C)C1CCOCC1 + NC1CCC(NC2CC2c2ccccc2)CC1', 'inactive'),
  ('COc1cc(C2c3cc4c(cc3C(OC3OC5COC(C)OC5C(O)C3O)C3COC(=O)C23)OCO4)cc(OC)c1O (stereo not given) + NC1CCC(NC2CC2c2ccccc2)CC1', 'inactive'),
  ('Nc1ccccc1NC(=O)c1ccc(CNC(=O)OCc2cccnc2)cc1 + NC1CC1c1ccc(-c2cccc(O)c2)cc1', 'active'),
  ('NS(=O)(=O)OCC1CC(n2ccc3c(NC4CCc5ccccc54)ncnc32)CC1O (stereo not given) + NC1CCC(NC2CC2c2ccccc2)CC1', 'inactive'),
  ('Nc1ccccc1NC(=O)c1ccc(CNC(=O)OCc2cccnc2)cc1 + NC1CCC(NC2CC2c2ccccc2)CC1', 'active');

====

- Tested on: 171881-019-R-J1-PDC complex spheroid viability
- test: Anticancer human tumor 171881-019-R-J1-PDC cell line growth inhibition; active = viability on the fitted dose curve at most 10% of control; inactive = the rest;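 further: spheroids exposed to agents for 7 days after 3 days growth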
- assayContext: second compound 10 µM; first compound 0.01 µM
- Source text: Multicellular complex tumor spheroid response to LSD1 Inhibitor Iadademstat in combination with a variety of drugs and investigational agents in selected tumor cell lines The current study was undertaken to assess response to LSD1 inhibitors in combination with standard-of-care drugs and investigational agents in solid tumor complex spheroid models as well as in the K-562 leukemia. […] Compounds. […] If the clinical Cmax for an agent had not been determined, the highest concentration tested was 10 microM. […]
Labels: yes (active), no (inactive)

INSERT INTO assay_data (molecule, labelclass) VALUES
  ('CC(C)CC(NC(=O)CNC(=O)c1cc(Cl)ccc1Cl)B1OC(=O)CC(CC(=O)O)(C(=O)O)O1 (centres undefined) + NC1CC1c1ccc(-c2cccc(O)c2)cc1', 'yes'),
  ('CC1COCCN1c1cc(-c2ccnn2C)c2ccnc(-c3ccn[nH]3)c2n1 (centres undefined) + NC1CC1c1ccc(-c2cccc(O)c2)cc1', 'no'),
  ('CC1COCCN1c1cc(-c2ccnn2C)c2ccnc(-c3ccn[nH]3)c2n1 (centres undefined) + NC1CCC(NC2CC2c2ccccc2)CC1', 'no'),
  ('CC(C)CC(NC(=O)CNC(=O)c1cc(Cl)ccc1Cl)B1OC(=O)CC(CC(=O)O)(C(=O)O)O1 (centres undefined) + NC1CCC(NC2CC2c2ccccc2)CC1', 'yes');

====

- Test system: 171881-019-R-J1-PDC complex spheroid viability
- test: Anticancer human tumor 171881-019-R-J1-PDC cell line growth inhibition;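 further: spheroids exposed to agents for 7 days after 3 days growth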
- assayContext: second compound 3.16 µM; first compound 0.03 µM; stronger effect = lower value
attributeMeasured: viability, T/C (%)

INSERT INTO assay_data (compound, attributemeasured, endpointresult) VALUES
  ('Nc1ccn(C2OC(CO)C(O)C2(F)F)c(=O)n1 (stereo not given) + NC1CC1c1ccc(-c2cccc(O)c2)cc1', 'viability, T/C', 56.6),
  ('Nc1ccccc1NC(=O)c1ccc(CNC(=O)OCc2cccnc2)cc1 + NC1CC1c1ccc(-c2cccc(O)c2)cc1', 'viability, T/C', 102),
  ('Nc1ncn(C2CC(O)C(CO)S2)c(=O)n1 (stereo not given) + NC1CCC(NC2CC2c2ccccc2)CC1', 'viability, T/C', 109),
  ('Nc1ccn(C2OC(CO)C(O)C2(F)F)c(=O)n1 (stereo not given) + NC1CCC(NC2CC2c2ccccc2)CC1', 'viability, T/C', 63.4),
  ('O=C(C=Cc1cccc(S(=O)(=O)Nc2ccccc2)c1)NO + NC1CC1c1ccc(-c2cccc(O)c2)cc1', 'viability, T/C', 89.5);

====

- Tested on: 171881-019-R-J1-PDC complex spheroid viability
- test: Anticancer human tumor 171881-019-R-J1-PDC cell line growth inhibition;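 further: spheroids exposed to agents for 7 days after 3 days growth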
- assayContext: compound alone; run of 02/15/2022
attributeMeasured: IC50

INSERT INTO results (compound, attributemeasured, endpointresult) VALUES
  ('NC1CCC(NC2CC2c2ccccc2)CC1 (stereo unspecified)', 'IC50', '> 10 µM');

====

- System: 171881-019-R-J1-PDC complex spheroid viability
- test: Anticancer human tumor 171881-019-R-J1-PDC cell line growth inhibition;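 further: spheroids exposed to agents for 7 days after 3 days growth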
- assayContext: second compound 3.16 µM; first compound 0.3 µM; stronger effect = lower value
attributeMeasured: viability, T/C (%)

INSERT INTO measurements (molecule, endpointresult) VALUES
  ('CCc1c2c(nc3ccc(O)cc13)-c1cc3c(c(=O)n1C2)COC(=O)[C@]3(O)CC + NC1CC1c1ccc(-c2cccc(O)c2)cc1', 5.74),
  ('Nc1ncn(C2CC(O)C(CO)S2)c(=O)n1 (centres undefined) + NC1CCC(NC2CC2c2ccccc2)CC1', 41.3),
  ('O=C(C=Cc1cccc(S(=O)(=O)Nc2ccccc2)c1)NO + NC1CCC(NC2CC2c2ccccc2)CC1', 58.9),
  ('NS(=O)(=O)OCC1CC(n2ccc3c(NC4CCc5ccccc54)ncnc32)CC1O (centres undefined) + NC1CCC(NC2CC2c2ccccc2)CC1', 22.8),
  ('CCN(c1cc(-c2ccc(CN3CCOCC3)cc2)cc(C(=O)NCc2c(C)cc(C)[nH]c2=O)c1C)C1CCOCC1 + NC1CC1c1ccc(-c2cccc(O)c2)cc1', 75.2),
  ('O=C(C=Cc1cccc(S(=O)(=O)Nc2ccccc2)c1)NO + NC1CC1c1ccc(-c2cccc(O)c2)cc1', 64.3),
  ('NS(=O)(=O)OCC1CC(n2ccc3c(NC4CCc5ccccc54)ncnc32)CC1O (centres undefined) + NC1CC1c1ccc(-c2cccc(O)c2)cc1', 24.1),
  ('Nc1ccn(C2OC(CO)C(O)C2(F)F)c(=O)n1 (centres undefined) + NC1CC1c1ccc(-c2cccc(O)c2)cc1', 63.2),
  ('Nc1ccccc1NC(=O)c1ccc(CNC(=O)OCc2cccnc2)cc1 + NC1CCC(NC2CC2c2ccccc2)CC1', 48.1);

====

- Tested on: 171881-019-R-J1-PDC complex spheroid viability
- test: Anticancer human tumor 171881-019-R-J1-PDC cell line growth inhibition;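 further: spheroids exposed to agents for 7 days after 3 days growth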
- assayContext: second compound 0.316 µM; first compound 0.000949 µM; stronger effect = lower value
- Text: Multicellular complex tumor spheroid response to LSD1 Inhibitor Iadademstat in combination with a variety of drugs and investigational agents in selected tumor cell lines The current study was undertaken to assess response to LSD1 inhibitors in combination with standard-of-care drugs and investigational agents in solid tumor complex spheroid models as well as in the K-562 leukemia. […] Compounds. […] If the clinical Cmax for an agent had not been determined, the highest concentration tested was 10 microM. […]
Could you please mark rule met for values of viability, T/C below 80% and rule not met for values at or above it?

INSERT INTO assay_data (molecule, testedsystem, labelclass) VALUES
  ('CCc1c2c(nc3ccc(O)cc13)-c1cc3c(c(=O)n1C2)COC(=O)[C@]3(O)CC + NC1CC1c1ccc(-c2cccc(O)c2)cc1', '171881-019-R-J1-PDC complex spheroid viability', 'rule met'),
  ('Nc1ncn(C2CC(O)C(CO)S2)c(=O)n1 (stereo unspecified) + NC1CCC(NC2CC2c2ccccc2)CC1', '171881-019-R-J1-PDC complex spheroid viability', 'rule not met'),
  ('Nc1ccn(C2OC(CO)C(O)C2(F)F)c(=O)n1 (stereo unspecified) + NC1CC1c1ccc(-c2cccc(O)c2)cc1', '171881-019-R-J1-PDC complex spheroid viability', 'rule met'),
  ('CCc1c2c(nc3ccc(O)cc13)-c1cc3c(c(=O)n1C2)COC(=O)[C@]3(O)CC + NC1CCC(NC2CC2c2ccccc2)CC1', '171881-019-R-J1-PDC complex spheroid viability', 'rule met'),
  ('Nc1ncn(C2CC(O)C(CO)S2)c(=O)n1 (stereo unspecified) + NC1CC1c1ccc(-c2cccc(O)c2)cc1', '171881-019-R-J1-PDC complex spheroid viability', 'rule not met');
